Give pIC50 for every item shown.
measurementTarget: PRMT5/MEP50 (Homo sapiens)
Construct: Flag-PRMT5
Sequence (O14744 with tags, fused parts or gaps): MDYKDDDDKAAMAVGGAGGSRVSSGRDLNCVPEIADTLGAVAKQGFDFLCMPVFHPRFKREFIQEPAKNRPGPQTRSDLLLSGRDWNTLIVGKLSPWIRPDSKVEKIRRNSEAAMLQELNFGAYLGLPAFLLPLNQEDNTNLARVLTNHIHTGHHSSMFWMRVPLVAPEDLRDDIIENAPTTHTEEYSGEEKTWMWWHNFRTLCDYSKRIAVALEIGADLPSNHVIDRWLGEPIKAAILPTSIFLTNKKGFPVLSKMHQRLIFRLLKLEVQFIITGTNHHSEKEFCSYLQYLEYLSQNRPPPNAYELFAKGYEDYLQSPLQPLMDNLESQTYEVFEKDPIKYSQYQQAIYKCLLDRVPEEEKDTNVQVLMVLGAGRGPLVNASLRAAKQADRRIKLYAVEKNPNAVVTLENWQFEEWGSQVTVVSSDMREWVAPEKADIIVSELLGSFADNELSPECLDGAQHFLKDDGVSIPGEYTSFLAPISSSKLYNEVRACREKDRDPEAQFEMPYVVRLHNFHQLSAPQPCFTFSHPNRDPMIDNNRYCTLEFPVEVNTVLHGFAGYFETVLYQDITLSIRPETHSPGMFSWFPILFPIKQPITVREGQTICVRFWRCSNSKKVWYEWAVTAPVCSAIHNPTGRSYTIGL
Sequence (Q9BQA1 with tags, fused parts or gaps partner limits assumed): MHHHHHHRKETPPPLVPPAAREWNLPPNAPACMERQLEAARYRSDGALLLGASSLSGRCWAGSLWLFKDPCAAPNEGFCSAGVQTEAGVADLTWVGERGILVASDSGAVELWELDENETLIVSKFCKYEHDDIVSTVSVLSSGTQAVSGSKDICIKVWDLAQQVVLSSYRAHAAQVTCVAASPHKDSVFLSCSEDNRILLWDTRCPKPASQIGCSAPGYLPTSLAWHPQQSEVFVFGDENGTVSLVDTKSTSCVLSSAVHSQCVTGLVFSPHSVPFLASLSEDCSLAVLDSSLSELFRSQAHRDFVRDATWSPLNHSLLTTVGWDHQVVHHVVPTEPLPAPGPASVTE
assayProtocol: PRMT5 Biochemical Assay (PRMT5/MEP50 enzyme assay on peptide substrate, 3H-SAM Flashplate)
experimentalParameters: PRMT5/MEP50 4 nM, 3H-SAM 75 nM, peptide 40 nM, 30 min preincubation at 25 degrees Celsius
pIC50: −log10 of the molar value.

Record lookup: for PRMT5/MEP50 (Homo sapiens), what pIC50 belongs to O=C(COc1cccc2cccnc12)NCC(O)CN1CCc2ccsc2C1 (stereo not shown) [Compound 1-5] ?
> 7.00

Record lookup: for PRMT5/MEP50 (Homo sapiens), what pIC50 belongs to CC(=O)N1CCC(Nc2cc(C(=O)NC[C@H](O)CN3CCc4[nH]cnc4C3)ncn2)CC1 [Compound 3-34] ?
< 5.00

Record lookup: for PRMT5/MEP50 (Homo sapiens), what pIC50 belongs to CC(=O)N1CCC(Nc2cc(C(=O)NC[C@H](O)CN3CCc4cn(C)nc4C3)ncn2)CC1 [Compound 3-59] ?
< 5.00

Record lookup: for PRMT5/MEP50 (Homo sapiens), what pIC50 belongs to CC(=O)N1CCC(Nc2cc(C(=O)NC[C@H](O)CN3CCc4sc(N)nc4C3)ccn2)CC1 [Compound 1-34] ?
6.00 to 7.00

Record lookup: for PRMT5/MEP50 (Homo sapiens), what pIC50 belongs to CC(=O)N1CCC(Nc2cc(C(=O)NC[C@H](O)CN3CCc4cnccc4C3)ccn2)CC1 [Compound 2-18] ?
6.00 to 7.00

Record lookup: for PRMT5/MEP50 (Homo sapiens), what pIC50 belongs to CC(=O)N1CC(Nc2cc(C(=O)NC[C@H](O)CN3CCc4cnn(C)c4C3)ncn2)C1 [Compound 3-49] ?
5.00 to 6.00

Record lookup: for PRMT5/MEP50 (Homo sapiens), what pIC50 belongs to CC(=O)N1CCC(Nc2cc(C(=O)NC[C@H](O)CN3CCc4cnccc4C3)ncn2)CC1 [Compound 2-17] ?
6.00 to 7.00

Record lookup: for PRMT5/MEP50 (Homo sapiens), what pIC50 belongs to CC(=O)N1CC(Nc2cc(C(=O)NC[C@H](O)CN3CCc4[nH]cnc4C3)ncn2)C1 [Compound 3-33] ?
< 5.00

Record lookup: for PRMT5/MEP50 (Homo sapiens), what pIC50 belongs to Cc1nc2c(o1)CCN(C[C@@H](O)CNC(=O)c1cc(NC3COC3)ncn1)C2 [Compound 4-1] ?
< 5.00

Record lookup: for PRMT5/MEP50 (Homo sapiens), what pIC50 belongs to OC(COc1cccc(CNC2CCCC2)c1)CN1CCc2[nH]ncc2C1 (stereo not shown) [Compound 3-14] ?
< 4.30

Record lookup: for PRMT5/MEP50 (Homo sapiens), what pIC50 belongs to CC(=O)N1CCC(Nc2cc(C(=O)NC[C@H](O)CN3CCc4cccnc4C3)ccn2)CC1 [Compound 2-21] ?
6.00 to 7.00

Record lookup: for PRMT5/MEP50 (Homo sapiens), what pIC50 belongs to OC(COc1ccccc1)CN1CCc2[nH]nc(-c3ccccc3)c2C1 (stereo not shown) [Compound 3-32] ?
< 4.30

Record lookup: for PRMT5/MEP50 (Homo sapiens), what pIC50 belongs to CC(=O)N1CCC(Nc2cc(C(=O)NC[C@H](O)CN3CCc4scc(C)c4C3)ccn2)CC1 [Compound 1-14] ?
> 7.00

Record lookup: for PRMT5/MEP50 (Homo sapiens), what pIC50 belongs to CC(=O)N1CC(Nc2cc(C(=O)NC[C@H](O)CN3CCc4[nH]ncc4C3)ncn2)C1 [Compound 3-23] ?
5.00 to 6.00

Record lookup: for PRMT5/MEP50 (Homo sapiens), what pIC50 belongs to Nc1nc2c(s1)CN(C[C@@H](O)CNC(=O)c1cc(NC3COC3)ncn1)CC2 [Compound 1-23] ?
< 5.00

Record lookup: for PRMT5/MEP50 (Homo sapiens), what pIC50 belongs to O=C(COc1cccc2cccnc12)NCC(O)CN1CCc2ncccc2C1 (stereo not shown) [Compound 2-6] ?
5.00 to 6.00
